The origin of these recorded values is patent US11033539B2.

Biological target: human M4 receptor (Homo sapiens (Human))
Sequence (P08173 whole entry): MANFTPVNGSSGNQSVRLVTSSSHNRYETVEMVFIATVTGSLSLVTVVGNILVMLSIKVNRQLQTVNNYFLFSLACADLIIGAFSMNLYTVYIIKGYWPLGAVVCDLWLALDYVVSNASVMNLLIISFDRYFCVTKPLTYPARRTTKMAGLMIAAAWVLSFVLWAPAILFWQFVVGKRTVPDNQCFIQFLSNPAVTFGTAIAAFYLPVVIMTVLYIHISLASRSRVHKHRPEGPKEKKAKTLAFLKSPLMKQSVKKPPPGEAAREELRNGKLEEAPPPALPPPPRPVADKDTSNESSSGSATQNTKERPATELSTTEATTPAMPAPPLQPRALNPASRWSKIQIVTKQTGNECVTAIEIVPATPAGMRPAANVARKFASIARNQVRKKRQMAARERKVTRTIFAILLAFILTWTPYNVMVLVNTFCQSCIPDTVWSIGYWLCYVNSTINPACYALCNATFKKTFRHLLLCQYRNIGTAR
Assay: Radioligand (tritiated N-methylscopolamine) binding assay, M4
Conditions: Ki against the M4 receptor; membranes from CHO cells expressing human M4; tritiated N-methylscopolamine 1.5 nM; read-out: Ki
Listed below: Ki values for each entry.

Noted for C[C@@H]1CN(c2ncc(C(F)(F)F)cn2)CCN1C(=O)NCCC1CCN(Cc2ccc(C#N)cc2)CC1 : its Ki reads 10 to 100 nM

Noted for Cc1[nH]c(-c2ccc(Cl)cc2Cl)nc1C(=O)NCCC1CCN(Cc2ccccc2)CC1 : its Ki reads 100 to 1000 nM

Noted for O=C(NCCC1CCN(Cc2ccccc2)CC1)N1CCC(n2nnc3ccccc32)CC1 : its Ki reads 100 to 1000 nM

Noted for CC(C)c1noc(C2CCN(C(=O)NCCC3CCN(Cc4ccccc4)CC3)CC2)n1 : its Ki reads 100 to 1000 nM

Noted for CNc1nc(N2CCN(C(=O)NCCC3CCN(Cc4ccccc4)CC3)[C@H](C)C2)ncc1C#N : its Ki reads < 10 nM

Noted for O=C(NCCC1CCN(Cc2ccccc2)CC1)C1(O)CCN(c2cc(F)c(F)c(F)c2)CC1 : its Ki reads 10 to 100 nM

Noted for C[C@@H]1CN(c2cnc(C(F)(F)F)nc2)C[C@@H](C)N1C(=O)NCCC1CCN(Cc2ccccc2)CC1 : its Ki reads < 10 nM

Noted for CC(c1ccccc1)N1CCC(CCNC(=O)c2ccc(OCc3ccccc3)cc2)CC1 (centres unmarked) : its Ki reads 100 to 1000 nM
